Test system: Raw 264.7 cells
Assay: Measurement of NO production in LPS-stimulated Raw 264.7 cells
Type: cell-based
Conditions: Mus musculus, RAW264.7; 100 μM; LPS 100 ng/ml, 24 h
parameter: inhibition at 100 µM (%)
Could you give me the number in %? Just the number is fine.

Please review the entries below; each comes with its answer.
NC1=NCC2c3ccccc3Cc3ccccc3N12 (centres unmarked) [Epinastine, epinastine]: 33.4
O=C(O)c1ccccc1O [Salicylic acid]: 15.6

Input: Bench note: what inhibition at 100 µM did CC(=O)Oc1ccccc1C(=O)NC1=NCC2c3ccccc3Cc3ccccc3N12 (centres unmarked) [E-A] show?
Output: 52.4

Input: For O=C(NC1=NCC2c3ccccc3Cc3ccccc3N12)c1ccccc1O (centres unmarked) [E-S] then?
Output: 40.8

Input: For CC(=O)Oc1ccccc1C(=O)O [Aspirin, acetylsalicylic acid (aspirin)] then?
Output: 12.4
